B1: FBXO3 (parent)
chain: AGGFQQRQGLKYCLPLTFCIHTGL

# Variants of: B1
# ASSAY_REMARKS: protein stability index of a GFP-peptide fusion (GPS, HEK-293T) (PSI 1-6); higher = more stable;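 also: lentivirally expressed fusions sorted by FACS into six bins by GFP to DsRed ratio, PSI derived from sequencing read proportions per bin multiplied by bin number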
# DETAILS: c terminus: a fixed tail appended
REPORTED_ENDPOINT: protein stability index
Reply: number alone, nothing else.

> print(dat)
   variant.key  reported.measurement
1         C19H                  2.66
2         L16S                  2.17
3          Q8I                  2.51
4         K11M                  1.96
5         T22M                  2.18

Which protein stability index value belongs to L10Q ?
3.23

Which protein stability index value belongs to T22V ?
3.1

Which protein stability index value belongs to L16R ?
2.91

Which protein stability index value belongs to Q5I ?
2.17

Which protein stability index value belongs to F18M ?
2.41

Values from the supplement of paper PMC10567573
